Assign EC50 to each entry below.
Tested on: HBV rcDNA
Protocol Summary: HepDE19 assay with bDNA quantitation of HBV rcDNA
Type: cell-based, hepatitis B virus
Assay Context: Hepatitis B virus, HepDE19, read-out: DE-19bDNA EC50 (μM), HepDE19 assay, inhibition of formation of relaxed circular DNA (rcDNA), bDNA quantitation
Report as a plain number; the unit µM is understood.

Task item: I'm curious: which EC50 was measured for CC(NC(=O)Nc1ccc(F)c(Cl)c1)c1c[nH]c(=O)c2cc(F)c(F)cc12 (stereo not drawn) tested on HBV rcDNA?
Reply: 0.85

Task item: I'm curious: which EC50 was measured for CC(c1c[nH]c(=O)c2c(F)c(F)ccc12)N(C)C(=O)N[C@@H](C)c1ccccc1 (single isomer, unassigned) tested on HBV rcDNA?
Reply: 23

Task item: I'm curious: which EC50 was measured for [2H]C([2H])([2H])N(C(=O)Nc1cccc(Cl)c1)C(C)c1c[nH]c(=O)c2c(F)c(F)ccc12 (single isomer, unassigned) tested on HBV rcDNA?
Reply: 0.015

Task item: I'm curious: which EC50 was measured for [2H]C([2H])([2H])N(C(=O)Nc1ccc(F)c(Cl)c1)C(C)c1c[nH]c(=O)c2cc(F)c(F)cc12 (single isomer, unassigned) tested on HBV rcDNA?
Reply: 0.007

Task item: I'm curious: which EC50 was measured for CC(c1c[nH]c(=O)c2c(F)c(F)ccc12)N(C)C(=O)Nc1ccccc1F (single isomer, unassigned) tested on HBV rcDNA?
Reply: 0.74

Task item: I'm curious: which EC50 was measured for CC(NC(=O)Nc1ccc(F)c(Cl)c1)c1c[nH]c(=O)c2c(F)c(F)ccc12 (single isomer, unassigned) tested on HBV rcDNA?
Reply: 3

Task item: I'm curious: which EC50 was measured for C[C@H](c1c[nH]c(=O)c2ccccc12)N(C)C(=O)Nc1ccc(Cl)cc1 tested on HBV rcDNA?
Reply: 0.34

Task item: I'm curious: which EC50 was measured for CC(c1c[nH]c(=O)c2c(F)c(F)ccc12)N(C)C(=O)Nc1cccnc1 (single isomer, unassigned) tested on HBV rcDNA?
Reply: 5.4

Task item: I'm curious: which EC50 was measured for CC(c1c[nH]c(=O)c2cc(F)c(F)cc12)N(C)C(=O)N[C@@H](C)c1ccccc1 (single isomer, unassigned) tested on HBV rcDNA?
Reply: 6.1

Task item: I'm curious: which EC50 was measured for CC(c1c[nH]c(=O)c2c(F)c(F)ccc12)N(C)C(=O)Nc1ccncc1 (single isomer, unassigned) tested on HBV rcDNA?
Reply: 15

Task item: I'm curious: which EC50 was measured for CC(c1c[nH]c(=O)c2c(F)c(F)ccc12)N(C)C(=O)NCc1ccccc1 (single isomer, unassigned) tested on HBV rcDNA?
Reply: 0.29

Task item: I'm curious: which EC50 was measured for [2H]C([2H])([2H])N(C(=O)Nc1ccc(F)c(Cl)c1)C(C)c1c[nH]c(=O)c2c(F)c(F)ccc12 (single isomer, unassigned) tested on HBV rcDNA?
Reply: 0.01
